From: ChEMBL document CHEMBL5376021

assay: Efflux ratio of apparent permeability in human Caco-2 cells; type: ADME, cell-based

[
  {
    "molecule": "O=C1CCC(N2Cc3cccc(OCc4ccc(CN5CCOCC5)cc4)c3C2)C(=O)N1 (stereo unspecified)",
    "efflux ratio": 0.7
  }
]

----------
biological target: Protein cereblon (Homo sapiens); assay: Inhibition of N-terminal fused Nano Luc CRBN in HEK293T cells by NanoBRET CRBN engagement assay
Sequence (Q96SW2 whole entry, the tested form may be a part): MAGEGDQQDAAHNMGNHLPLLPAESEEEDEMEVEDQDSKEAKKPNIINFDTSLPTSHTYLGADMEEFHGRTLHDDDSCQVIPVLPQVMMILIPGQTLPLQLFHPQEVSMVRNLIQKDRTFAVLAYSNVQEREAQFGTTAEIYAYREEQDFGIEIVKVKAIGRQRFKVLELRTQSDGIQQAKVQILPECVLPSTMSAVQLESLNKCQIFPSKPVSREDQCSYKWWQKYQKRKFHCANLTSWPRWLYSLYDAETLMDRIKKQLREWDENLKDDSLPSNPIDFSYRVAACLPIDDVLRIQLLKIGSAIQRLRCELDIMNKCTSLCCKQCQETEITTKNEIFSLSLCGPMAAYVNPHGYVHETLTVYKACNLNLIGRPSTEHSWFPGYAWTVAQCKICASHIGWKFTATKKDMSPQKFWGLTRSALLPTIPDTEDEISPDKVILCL
pIC50: −log10 of the molar value.
Label rule, in plain words: pIC50 of 5 and up is MET, under 5 is NOT MET.

[
  {
    "molecule": "O=C1CCC(N2Cc3cccc(OCc4ccc(CN5CCOCC5)cc4)c3C2)C(=O)N1 (stereo not drawn)",
    "class-label": "MET"
  },
  {
    "molecule": "O=C1CC[C@@H](C(=O)NCc2cccc(S(=O)(=O)F)c2)N1",
    "class-label": "NOT MET"
  },
  {
    "molecule": "O=C1CCC(NC(=O)Cc2ccc(S(=O)(=O)F)cc2)C(=O)N1 (stereo not drawn)",
    "class-label": "NOT MET"
  },
  {
    "molecule": "O=C1CCC(NC(=O)Cc2ccccc2)C(=O)N1 (stereo not drawn)",
    "class-label": "NOT MET"
  },
  {
    "molecule": "O=C1CC[C@H](C(=O)NCc2cccc(S(=O)(=O)F)c2)N1",
    "class-label": "NOT MET"
  },
  {
    "molecule": "O=C1CC[C@H](C(=O)NCc2ccccc2)N1",
    "class-label": "NOT MET"
  },
  {
    "molecule": "O=C1CC[C@H](C(=O)NCc2ccc(S(=O)(=O)F)cc2)N1",
    "class-label": "NOT MET"
  },
  {
    "molecule": "O=C1CC[C@@H](C(=O)NCc2ccc(S(=O)(=O)F)cc2)N1",
    "class-label": "NOT MET"
  },
  {
    "molecule": "O=C1CCC(N2Cc3ccccc3C2)C(=O)N1 (stereo not drawn)",
    "class-label": "NOT MET"
  },
  {
    "molecule": "O=C1CC[C@@H](C(=O)NCc2ccccc2)N1",
    "class-label": "NOT MET"
  },
  {
    "molecule": "O=C1CCC(N2Cc3ccc(S(=O)(=O)F)cc3C2)C(=O)N1 (stereo not drawn)",
    "class-label": "MET"
  },
  {
    "molecule": "CN1C(=O)CCC(N2Cc3ccc(S(=O)(=O)F)cc3C2=O)C1=O (stereo not drawn)",
    "class-label": "NOT MET"
  }
]
